Target: T1, human SLC34A2 (human, UniProt O95436 1-690)
T1 construct: whole, on cells; also called human solute carrier 34 A2; NaPi2b
T1 sequence (looked up): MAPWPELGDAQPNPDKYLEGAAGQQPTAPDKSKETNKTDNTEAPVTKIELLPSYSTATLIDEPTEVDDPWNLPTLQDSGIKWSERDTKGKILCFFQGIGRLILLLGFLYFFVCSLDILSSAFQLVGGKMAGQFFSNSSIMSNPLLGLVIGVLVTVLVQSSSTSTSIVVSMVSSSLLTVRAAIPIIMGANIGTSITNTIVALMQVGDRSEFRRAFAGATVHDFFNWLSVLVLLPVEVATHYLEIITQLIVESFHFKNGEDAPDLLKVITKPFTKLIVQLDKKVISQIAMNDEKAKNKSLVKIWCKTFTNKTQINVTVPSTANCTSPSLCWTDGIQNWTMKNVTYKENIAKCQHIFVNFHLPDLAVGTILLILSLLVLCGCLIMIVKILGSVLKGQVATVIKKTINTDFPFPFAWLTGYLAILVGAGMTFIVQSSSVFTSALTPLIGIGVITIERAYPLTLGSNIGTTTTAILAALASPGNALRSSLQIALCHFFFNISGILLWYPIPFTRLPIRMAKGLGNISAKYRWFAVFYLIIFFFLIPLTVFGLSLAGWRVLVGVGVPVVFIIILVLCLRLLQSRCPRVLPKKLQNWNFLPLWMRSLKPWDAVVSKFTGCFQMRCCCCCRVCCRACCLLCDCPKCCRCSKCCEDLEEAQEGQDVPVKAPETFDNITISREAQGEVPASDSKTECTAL
Assay: FACS, OVCAR3 cells
measured.endpoint: Top (MFI)
Write the value in MFI as a bare number.

Ask: Determine from records and report Top for 91C9F1.p1.z6 hIgG1 (antibody, V domains shown, humanized hIgG1) VH: QVQLVQSGAEVKKPGSSVKVSCKTSGFFFTEYIIHWVRQAPGQGLEWIGGIIPNNDVTNYKQNFRGRVTLTADKSTSTAYMELSSLRSEDTAVYYCARWRNAYYSAMDSWGQGTTVTVSS VL: DIQMTQSPSSLSTSVGDRVTITCTASQDVGTAVAWYQQKPGKSPKLLIYWASTRHTGVPERFSGSGSGTDFTLTISSLQPEDVATYFCQQYRTSPLTFGGGTKVEIK
Result: 20300

Ask: Determine from records and report Top for 91C9F1.p1.z4 hIgG1 (antibody, V domains shown, humanized hIgG1) VH: QVQLVQSGAEVKKPGSSVKVSCKASGFFFTEYIIHWVRQAPGQGLEWMGGIIPNNDVTNYKQNFRGRVTITADESTSTAYMELSSLRSEDTAVYYCARWRNAYYSAMDSWGQGTTVTVSS VL: DIVVTQSPSSLSTSVGDRVTITCTASQDVGTAVAWYQQKPGKSPKLLIYWASTRHTGVPERFTGSGSGTDFTLTISSVQPEDVATYFCQQYRTSPLTFGVGTKLELK
Result: 20200

Ask: Determine from records and report Top for 91C9F1.p1.z10 hIgG1 (antibody, V domains shown, humanized hIgG1) VH: QVQLVQSGAEVVKPGSSVKVSCKTSGFFFTEYIIHWVRQSPGQGLEWIGGIIPNNDVTNYKQNFRGRATLTADKSTSTAYMELSSLRSEDTAVYYCARWRNAYYSAMDSWGQGTTVTVSS VL: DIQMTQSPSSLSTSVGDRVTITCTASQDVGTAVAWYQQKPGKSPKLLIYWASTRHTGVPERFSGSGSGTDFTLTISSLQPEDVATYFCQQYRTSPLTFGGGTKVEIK
Result: 22300
